# testedTarget: CCHFV viral ovarian tumor domain protease (vOTU, L protein)
# experimentNotes: CCHFV vOTU protease inhibitor potency, dose response, biochemical, fluorescence, Pep-AMC substrate (AID 743296)
# measurementContext: recombinant CCHFV vOTU
Activity calls are given as the source filed them. How the calls were made is not given here.
Outcomes: active, inactive

compound: O=C1Cc2ccccc2C(=O)N1Cc1ccccc1
testedTarget: CCHFV viral ovarian tumor domain protease (vOTU, L protein)
assignedCategory: active

compound: Cn1nc(-c2ccccn2)nc2c(=O)n(C)c(=O)nc1-2
testedTarget: CCHFV viral ovarian tumor domain protease (vOTU, L protein)
assignedCategory: active

compound: COc1ccccc1NC(=O)COC(=O)c1ccc([N+](=O)[O-])s1
testedTarget: CCHFV viral ovarian tumor domain protease (vOTU, L protein)
assignedCategory: active

compound: O=C(COC(=O)c1ccc([N+](=O)[O-])s1)Nc1ncc(C(F)(F)F)cc1Cl
testedTarget: CCHFV viral ovarian tumor domain protease (vOTU, L protein)
assignedCategory: inactive

compound: S=C(Nc1ccc(Cl)cc1)Nc1cccc2cnccc12
testedTarget: CCHFV viral ovarian tumor domain protease (vOTU, L protein)
assignedCategory: inactive

compound: O=C(NC1=CC(=O)c2ccccc2C1=O)c1ccccc1
testedTarget: CCHFV viral ovarian tumor domain protease (vOTU, L protein)
assignedCategory: active

compound: O=C(O)CSc1cc(NS(=O)(=O)c2ccc(Cl)cc2)c2ccccc2c1O
testedTarget: CCHFV viral ovarian tumor domain protease (vOTU, L protein)
assignedCategory: active

compound: CC1(C)C=C2C(=NN(c3ccccc3)C(N)=C2C#N)CO1
testedTarget: CCHFV viral ovarian tumor domain protease (vOTU, L protein)
assignedCategory: active

compound: O=C(/C=C/c1ccc(O)cc1)c1ccc(NC2=C(N3CCCCC3)C(=O)c3ccccc3C2=O)cc1
testedTarget: CCHFV viral ovarian tumor domain protease (vOTU, L protein)
assignedCategory: active

compound: O=C1C=C(Nc2ccccc2)c2ccccc2C1=O
testedTarget: CCHFV viral ovarian tumor domain protease (vOTU, L protein)
assignedCategory: active

compound: Cc1ccc(NC2=CC(=O)C(=O)c3ccccc32)cc1
testedTarget: CCHFV viral ovarian tumor domain protease (vOTU, L protein)
assignedCategory: active

compound: Cc1c(Cl)cnc(NC(=O)COC(=O)c2ccc([N+](=O)[O-])s2)c1Cl
testedTarget: CCHFV viral ovarian tumor domain protease (vOTU, L protein)
assignedCategory: inactive

compound: Cc1ccc2c(c1C)-c1c(ccc(C)c1C)C(=O)C2=O
testedTarget: CCHFV viral ovarian tumor domain protease (vOTU, L protein)
assignedCategory: active

compound: CC(C)=CCC1=C(OCC(=O)O)C(=O)c2ccccc2C1=O
testedTarget: CCHFV viral ovarian tumor domain protease (vOTU, L protein)
assignedCategory: active

compound: NS(=O)(=O)c1ccc(NC(=O)COC(=O)c2ccc([N+](=O)[O-])s2)cc1
testedTarget: CCHFV viral ovarian tumor domain protease (vOTU, L protein)
assignedCategory: active

compound: NS(=O)(=O)c1ccc(NC2=CC(=O)C(=O)c3ccccc32)cc1
testedTarget: CCHFV viral ovarian tumor domain protease (vOTU, L protein)
assignedCategory: active

compound: CC1CCCC(NC(=O)COC(=O)c2ccc([N+](=O)[O-])s2)C1C (stereo unspecified)
testedTarget: CCHFV viral ovarian tumor domain protease (vOTU, L protein)
assignedCategory: active

compound: O=C1Cc2ccccc2C(=O)N1CCc1ccccc1
testedTarget: CCHFV viral ovarian tumor domain protease (vOTU, L protein)
assignedCategory: active

compound: CCc1cc[n+](C2=C(NS(=O)(=O)c3cccs3)C(=O)c3ccccc3C2=O)cc1
testedTarget: CCHFV viral ovarian tumor domain protease (vOTU, L protein)
assignedCategory: active

compound: COc1cc(NCCCCCCN)c2ncccc2c1OC
testedTarget: CCHFV viral ovarian tumor domain protease (vOTU, L protein)
assignedCategory: inactive

compound: CCC(CNc1cc(OC)cc2cccnc12)NC1CCCCC1 (stereo unspecified)
testedTarget: CCHFV viral ovarian tumor domain protease (vOTU, L protein)
assignedCategory: active

compound: CN(C1=C(NC(=O)c2ccccc2)C(=O)c2ccccc2C1=O)C1CCS(=O)(=O)C1 (stereo unspecified)
testedTarget: CCHFV viral ovarian tumor domain protease (vOTU, L protein)
assignedCategory: active

compound: COc1ccc2noc3c2c1C(=O)c1ccccc1-3
testedTarget: CCHFV viral ovarian tumor domain protease (vOTU, L protein)
assignedCategory: active

compound: CC(=O)c1ccc(NC(=S)Nc2cccc3cnccc23)cc1
testedTarget: CCHFV viral ovarian tumor domain protease (vOTU, L protein)
assignedCategory: inactive

compound: O=C(OCc1nnc(-c2ccccc2)o1)c1ccc([N+](=O)[O-])s1
testedTarget: CCHFV viral ovarian tumor domain protease (vOTU, L protein)
assignedCategory: active

compound: Nc1cc2c(cc1Br)[nH]c(=O)c1ccccc12
testedTarget: CCHFV viral ovarian tumor domain protease (vOTU, L protein)
assignedCategory: inactive

compound: O=C(NC1=C(NC2CCS(=O)(=O)C2)C(=O)c2ccccc2C1=O)c1ccccc1 (stereo unspecified)
testedTarget: CCHFV viral ovarian tumor domain protease (vOTU, L protein)
assignedCategory: active

compound: O=C(O)CSc1cc(NS(=O)(=O)c2ccc(Br)cc2)c2ccccc2c1O
testedTarget: CCHFV viral ovarian tumor domain protease (vOTU, L protein)
assignedCategory: active

compound: O=C(O)CSc1cc(NS(=O)(=O)c2cccc([N+](=O)[O-])c2)c2ccccc2c1O
testedTarget: CCHFV viral ovarian tumor domain protease (vOTU, L protein)
assignedCategory: active

compound: O=C1Cc2ccccc2C(=O)N1
testedTarget: CCHFV viral ovarian tumor domain protease (vOTU, L protein)
assignedCategory: active

compound: O=C(COC(=O)c1ccc([N+](=O)[O-])s1)NCc1ccc(F)cc1
testedTarget: CCHFV viral ovarian tumor domain protease (vOTU, L protein)
assignedCategory: active

compound: O=C(c1ccco1)[C@@H]1[C@@H]2C(=O)N(c3ccc(Br)cc3)C(=O)[C@@H]2C2c3ccccc3C=CN21 (stereo partly specified)
testedTarget: CCHFV viral ovarian tumor domain protease (vOTU, L protein)
assignedCategory: active

compound: O=S(=O)(Nc1cc2nc3ccccc3nc2n1Cc1ccccc1)c1ccc(Cl)cc1
testedTarget: CCHFV viral ovarian tumor domain protease (vOTU, L protein)
assignedCategory: active

compound: O=C(COC(=O)c1ccc([N+](=O)[O-])s1)Nc1ccccc1
testedTarget: CCHFV viral ovarian tumor domain protease (vOTU, L protein)
assignedCategory: active

compound: COc1cc(Br)c(C(=O)c2nccc3cc(OC)c(OC)cc23)cc1OC
testedTarget: CCHFV viral ovarian tumor domain protease (vOTU, L protein)
assignedCategory: active

compound: NC1=C(Cl)C(=O)c2ccc(S(N)(=O)=O)cc2C1=O
testedTarget: CCHFV viral ovarian tumor domain protease (vOTU, L protein)
assignedCategory: active

compound: Cc1ccc(N2C(=O)[C@@H]3[C@H](C2=O)C2c4ccccc4C=CN2[C@@H]3C(=O)c2ccco2)cc1 (stereo partly specified)
testedTarget: CCHFV viral ovarian tumor domain protease (vOTU, L protein)
assignedCategory: active

compound: Cc1ccccc1-c1cc2c(nn1)-c1ccccc1C2=O
testedTarget: CCHFV viral ovarian tumor domain protease (vOTU, L protein)
assignedCategory: active

compound: O=C(COC(=O)c1ccc([N+](=O)[O-])s1)Nc1ccc(F)cc1
testedTarget: CCHFV viral ovarian tumor domain protease (vOTU, L protein)
assignedCategory: active

compound: COc1cc(NCCCC(C)N)c2ncccc2c1 (stereo unspecified)
testedTarget: CCHFV viral ovarian tumor domain protease (vOTU, L protein)
assignedCategory: inactive

compound: COc1cc(C(=O)c2nccc3cc(OC)c(OC)cc23)c([N+](=O)[O-])cc1OC
testedTarget: CCHFV viral ovarian tumor domain protease (vOTU, L protein)
assignedCategory: active
